# credit: paper PMC5610480

Listing: CC50 at 24 h of selected compounds
Test: in vitro
Conditions: human

Example cases with answers are listed next.
| compound | CC50 at 24 h |
| --- | --- |
| O=c1oc2ccc(F)cc2c2c1C(c1c[nH]c3ccccc13)C([N+](=O)[O-])O2 (centres unmarked) | > 50 µM |
| Cc1ccc2oc(=O)c3c(c2c1)OC([N+](=O)[O-])C3c1c[nH]c2ccccc12 (centres unmarked) | 207 µM |
| Cc1cc2oc(=O)c3c(c2cc1C)OC([N+](=O)[O-])C3c1c[nH]c2ccccc12 (centres unmarked) | > 50 µM |
| O=c1oc2ccccc2c2c1C(c1cccc(Cl)c1)C([N+](=O)[O-])O2 (centres unmarked) | > 50 µM |
| Cc1[nH]c2ccccc2c1C1c2c(c3cc(Cl)ccc3oc2=O)OC1[N+](=O)[O-] (centres unmarked) | > 50 µM |

Sure, the documented CC50 at 24 h for Cc1ccc2oc(=O)c3c(c2c1)OC([N+](=O)[O-])C3c1c[nH]c2ccc(Br)cc12 (centres unmarked) is > 50 µM

Sure, the documented CC50 at 24 h for O=c1oc2ccc(Cl)cc2c2c1C(c1c[nH]c3ccccc13)C([N+](=O)[O-])O2 (centres unmarked) is > 50 µM

Sure, the documented CC50 at 24 h for O=c1oc2ccc(Cl)cc2c2c1C(c1c[nH]c3ccccc13)CO2 (centres unmarked) is 50 µM

###

Tested on: CHIKV expressing Renilla luciferase
Assay: microbe, parasite or virus in culture
Assay type: cell-based
Conditions: Chikungunya virus, HEK-293T, 24 h, read-out: IC50, CHIKV Renilla luciferase
readout-kind: IC50

Sure, the documented IC50 for Cc1ccc2oc(=O)c3c(c2c1)OC([N+](=O)[O-])C3c1c[nH]c2ccccc12 (stereo not shown) [DD778] is 1400 nM

###

Assay: in vitro
Details: human
readout-kind: CC50

Sure, the documented CC50 for O=c1oc2ccccc2c(O)c1C(C[N+](=O)[O-])c1c[nH]c2ccccc12 (stereo not shown) [JP39] is > 50 µM
